The entries below are paired with their reported Max ΔF/F0.
- STUDY_SYSTEM: mTAS1R2-WT/mTAS1R3-WT (Mus musculus, UniProt Q925D8+Q925I4)
- Construct: expressed in transfected cells; host or cells: HEK293T-Gα16gust44
- Sequence (Q925I4 20-843): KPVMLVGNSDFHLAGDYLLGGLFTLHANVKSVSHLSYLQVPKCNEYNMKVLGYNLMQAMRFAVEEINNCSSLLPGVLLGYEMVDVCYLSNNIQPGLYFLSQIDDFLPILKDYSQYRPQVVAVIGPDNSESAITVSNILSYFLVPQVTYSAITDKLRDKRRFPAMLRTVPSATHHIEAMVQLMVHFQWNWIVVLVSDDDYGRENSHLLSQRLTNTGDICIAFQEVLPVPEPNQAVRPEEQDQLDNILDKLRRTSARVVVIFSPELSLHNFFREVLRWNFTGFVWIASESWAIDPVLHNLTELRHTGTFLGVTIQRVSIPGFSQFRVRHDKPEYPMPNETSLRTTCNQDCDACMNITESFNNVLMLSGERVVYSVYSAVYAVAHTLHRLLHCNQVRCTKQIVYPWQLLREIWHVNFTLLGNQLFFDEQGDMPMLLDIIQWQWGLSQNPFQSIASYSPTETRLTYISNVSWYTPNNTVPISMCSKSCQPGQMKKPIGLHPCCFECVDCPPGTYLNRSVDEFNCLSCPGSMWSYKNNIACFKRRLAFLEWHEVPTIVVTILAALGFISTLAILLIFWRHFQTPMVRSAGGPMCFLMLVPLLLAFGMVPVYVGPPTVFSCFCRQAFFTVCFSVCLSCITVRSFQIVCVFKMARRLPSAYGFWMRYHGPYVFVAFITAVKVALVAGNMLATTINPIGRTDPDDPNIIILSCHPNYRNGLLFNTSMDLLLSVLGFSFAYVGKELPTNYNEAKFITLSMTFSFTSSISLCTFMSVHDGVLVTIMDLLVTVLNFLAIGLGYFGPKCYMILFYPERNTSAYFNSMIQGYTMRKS
- Sequence (Q925D8 21-858): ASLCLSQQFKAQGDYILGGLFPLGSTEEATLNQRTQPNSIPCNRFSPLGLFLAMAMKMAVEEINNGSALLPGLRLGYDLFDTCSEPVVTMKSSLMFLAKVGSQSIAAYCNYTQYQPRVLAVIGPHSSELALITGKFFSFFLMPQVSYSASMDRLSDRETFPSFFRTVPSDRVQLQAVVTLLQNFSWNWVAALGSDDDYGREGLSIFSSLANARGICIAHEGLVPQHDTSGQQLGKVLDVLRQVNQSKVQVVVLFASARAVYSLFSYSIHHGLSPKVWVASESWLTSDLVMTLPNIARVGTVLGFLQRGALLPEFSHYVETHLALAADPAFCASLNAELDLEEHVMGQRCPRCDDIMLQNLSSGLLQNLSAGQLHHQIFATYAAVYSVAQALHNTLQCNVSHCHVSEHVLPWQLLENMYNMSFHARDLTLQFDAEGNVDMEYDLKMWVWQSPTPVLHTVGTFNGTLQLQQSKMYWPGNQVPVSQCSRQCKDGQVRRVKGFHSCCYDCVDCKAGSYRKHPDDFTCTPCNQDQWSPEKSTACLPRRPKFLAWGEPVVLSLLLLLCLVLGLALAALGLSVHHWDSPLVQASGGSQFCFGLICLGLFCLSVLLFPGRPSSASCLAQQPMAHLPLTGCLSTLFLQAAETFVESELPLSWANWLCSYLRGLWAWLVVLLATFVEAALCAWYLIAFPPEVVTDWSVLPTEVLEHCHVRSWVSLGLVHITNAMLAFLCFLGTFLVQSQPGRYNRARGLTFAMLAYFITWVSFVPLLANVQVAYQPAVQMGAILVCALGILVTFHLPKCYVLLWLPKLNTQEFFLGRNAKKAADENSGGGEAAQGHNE
- EXPERIMENT: Calcium mobilisation assay, HEK293T-Gα16gust44 cells, mouse sweet taste receptor WT
- Type: cell-based
- CONDITIONS: mTAS1R2-WT + mTAS1R3-WT; maximal signal amplitude; "-": no activation
Could you keep your reply to the number by itself?

Please review the entries below; each comes with its answer.
[[record]]
molecule = "CC1=CC(=O)NS(=O)(=O)O1 [Acesulfame K, acesulfame K]"
study_system = "mTAS1R2-WT/mTAS1R3-WT (Mus musculus, UniProt Q925D8+Q925I4)"
test_result = 1.63

[[record]]
molecule = "C[C@H](CC[C@@H](O[C@@H]1O[C@H](CO[C@@H]2O[C@H](CO)[C@@H](O)[C@H](O)[C@H]2O)[C@@H](O)[C@H](O)[C@H]1O[C@@H]1O[C@H](CO)[C@@H](O)[C@H](O)[C@H]1O)C(C)(C)O)[C@H]1CC[C@@]2(C)[C@@H]3CC=C4[C@@H](CC[C@H](O[C@@H]5O[C@H](CO[C@@H]6O[C@H](CO)[C@@H](O)[C@H](O)[C@H]6O)[C@@H](O)[C@H](O)[C@H]5O)C4(C)C)[C@]3(C)[C@H](O)C[C@]12C [Mogroside V, mogroside V]"
study_system = "mTAS1R2-WT/mTAS1R3-WT (Mus musculus, UniProt Q925D8+Q925I4)"
test_result = 0.84

[[record]]
molecule = "OC[C@H]1O[C@H](O[C@]2(CCl)O[C@H](CCl)[C@@H](O)[C@@H]2O)[C@H](O)[C@@H](O)[C@H]1Cl [Sucralose]"
study_system = "mTAS1R2-WT/mTAS1R3-WT (Mus musculus, UniProt Q925D8+Q925I4)"
test_result = 2.03


Here is the next item to consider.
Query C=C1C[C@@]23CC[C@H]4[C@@](C)(CCC[C@@]4(C)C(=O)O[C@@H]4O[C@H](CO)[C@@H](O)[C@H](O[C@@H]5O[C@H](CO)[C@@H](O)[C@H](O)[C@H]5O)[C@H]4O[C@@H]4O[C@H](CO)[C@@H](O)[C@H](O)[C@H]4O)[C@@H]2CC[C@]1(O[C@@H]1O[C@H](CO)[C@@H](O)[C@H](O[C@@H]2O[C@H](CO)[C@@H](O)[C@H](O)[C@H]2O)[C@H]1O[C@@H]1O[C@H](CO)[C@@H](O)[C@H](O)[C@H]1O)C3 [Rebaudioside M, rebaudioside M] on mTAS1R2-WT/mTAS1R3-WT (Mus musculus, UniProt Q925D8+Q925I4); Max ΔF/F0 returned: 1.41
